Biological target: T1, human OX40 on cells (CHO-K1/hu OX40) (human, UniProt P43489 29-277)
T1 construct: whole, on cells; Also used here for OX40 on the HEK293/OX40/NF-kb reporter cells and on human T cells in the functional assays; also called CHO-K1/OX40; human OX40 cells
T1 sequence (looked up): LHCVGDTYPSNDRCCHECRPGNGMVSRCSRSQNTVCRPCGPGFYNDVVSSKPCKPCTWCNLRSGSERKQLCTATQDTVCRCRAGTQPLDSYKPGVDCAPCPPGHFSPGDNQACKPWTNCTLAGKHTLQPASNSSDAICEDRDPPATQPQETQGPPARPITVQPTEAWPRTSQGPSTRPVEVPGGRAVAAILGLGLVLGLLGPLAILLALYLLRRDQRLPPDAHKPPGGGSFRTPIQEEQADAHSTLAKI
Assay: FACS, CHO-K1/hu OX40 cells
experimental endpoint: pEC50
Please keep in mind that pEC50 is minus log10 of the molar concentration; only the number is needed.

PR002066 (antibody, human IgG1, V domains shown, no light chain; also called anti-OX40 HCAb antibody) VH: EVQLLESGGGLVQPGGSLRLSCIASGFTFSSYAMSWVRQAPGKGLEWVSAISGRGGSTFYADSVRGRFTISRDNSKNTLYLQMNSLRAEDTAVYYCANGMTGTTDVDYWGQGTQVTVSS    8.33

Could you please provide reported pEC50 for PR002059 (antibody, human IgG1, V domains shown, no light chain; also called anti-OX40 HCAb antibody) VH: EVQLLESGGGLVQPGGSLRLSCVVSGLTFSSYAMSWVRQAPGKGREWVSAISGRGGSTFYADSVRGRFTISRDNSKNTLYLQMNSLRAEDTAVYYCANGMTGSTDVDYWGQGTLVTVSS ? Thanks! 8.87

Could you please provide reported pEC50 for PR002063 (antibody, human IgG1, V domains shown, no light chain; also called anti-OX40 HCAb antibody) VH: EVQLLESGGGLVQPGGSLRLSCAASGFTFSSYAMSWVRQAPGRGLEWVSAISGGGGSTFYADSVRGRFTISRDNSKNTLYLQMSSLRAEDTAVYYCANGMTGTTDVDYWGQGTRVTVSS ? Thanks! 8.05

Could you please provide reported pEC50 for PR002073 (antibody, human IgG1, V domains shown, no light chain; also called anti-OX40 HCAb antibody) VH: EVQLVESGGGLVQPGGSLRLSCAASGFTFSSYAMSWVRQAPGKGLEWVSAISGGSGSTFYADSVRGRFTISRDNSKNTLYLQMNSLRAEDTAVYYCADGVTGTDFDFWGQGTLVTVSS ? Thanks! 8.18

Could you please provide reported pEC50 for PR002067 (antibody, human IgG1, V domains shown, no light chain; also called anti-OX40 HCAb antibody) VH: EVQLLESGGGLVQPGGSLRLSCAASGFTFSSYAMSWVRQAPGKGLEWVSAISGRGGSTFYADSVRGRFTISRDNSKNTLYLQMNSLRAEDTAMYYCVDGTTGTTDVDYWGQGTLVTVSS ? Thanks! 8.28

Could you please provide reported pEC50 for PR002070 (antibody, human IgG1, V domains shown, no light chain; also called anti-OX40 HCAb antibody) VH: EVQLLESGGGLVQPGGSLRLSCIASGFSFSSYAMSWVRQAPGKGLEWVSAISGRGGSTFYADSVRGRFNISRDNSKNTLYLQMNSLRVEDTAVYYCANGMTGTTDVDYWGQGTLVTVSS ? Thanks! 8.36

Could you please provide reported pEC50 for PR002056 (antibody, human IgG1, V domains shown, no light chain; also called anti-OX40 HCAb antibody) VH: EVQLLESGGGLVQPGGSLRLSCAASGFTFSSYAMSWVRQAPGKGLEWVSAISGGGGSIFYADSVRGRFTISRDNSKNTLYLQMNSLRAEDTAVYYCANGMTGTTDVDYWGQGTLVTVSS ? Thanks! 8.51

Could you please provide reported pEC50 for PR002076 (antibody, human IgG1, V domains shown, no light chain; also called anti-OX40 HCAb antibody) VH: EVQLLESGGGLVQPGGSLRLSCAASGFTFSSYAMSWVRQAPGKGLEWVSAISGSGGNTYYADSVRGRFTISRDNSKNTLYLQMNSLRAEDTAVYYCANGMTGTTDVDYWGQGTRVTVSS ? Thanks! 7.61
